All values here come from patent US20250051375A1.

molecular target: bovine intestinal alkaline phosphatase (Bos taurus (Bovine), UniProt P19111); assay: BiALP: conversion by bovine intestinal alkaline phosphatase; format: in vitro ADME; conditions: parent formed; 2 μM substrate, 100 ng/mL iALP, Tris pH 7.8, 37° C., 60 minutes
Sequence (P19111 20-506): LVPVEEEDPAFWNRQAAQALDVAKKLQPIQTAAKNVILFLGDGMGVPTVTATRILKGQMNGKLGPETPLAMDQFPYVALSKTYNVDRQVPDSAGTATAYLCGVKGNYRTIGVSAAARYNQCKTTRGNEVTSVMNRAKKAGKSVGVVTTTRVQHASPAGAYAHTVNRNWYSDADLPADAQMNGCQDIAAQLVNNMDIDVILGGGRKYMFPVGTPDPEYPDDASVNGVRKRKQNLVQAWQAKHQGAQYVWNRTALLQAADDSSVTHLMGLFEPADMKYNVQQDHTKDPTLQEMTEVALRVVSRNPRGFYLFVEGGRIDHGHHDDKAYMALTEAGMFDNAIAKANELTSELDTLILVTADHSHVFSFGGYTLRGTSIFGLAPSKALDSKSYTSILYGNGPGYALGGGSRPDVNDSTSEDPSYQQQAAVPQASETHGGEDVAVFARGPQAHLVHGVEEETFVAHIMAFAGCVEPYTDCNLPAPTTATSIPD
# [Intermediate A] or [Amprenavir] values compiled below
Express your answer in nM, writing the number without its unit.

*Q* Return [Intermediate A] or [Amprenavir] for the following molecule: COC(=O)N[C@H](C(=O)N[C@@H](Cc1ccc(C#Cc2cnc(N3CC4CCC(C3)N4C3COC3)nc2)cc1)[C@H](CN(Cc1c(F)cc(-c2ccn(C(F)F)n2)cc1F)NC(=O)[C@@H](NC(=O)OC)C(C)(C)C(F)(F)F)OC(=O)CC(C)(C)c1c(CC(=O)N[C@@H](CCC(N)=O)C(=O)O)cc(C)cc1OP(=O)(O)O)C(C)(C)C(F)(F)F
*A* 109.8

*Q* Report [Intermediate A] or [Amprenavir], nothing else, for this molecule: COC(=O)N[C@H](C(=O)N[C@@H](Cc1ccc(C#Cc2cnc(N3CC4CCC(C3)N4C3COC3)nc2)cc1)[C@H](CN(Cc1c(F)cc(-c2ccn(C(F)F)n2)cc1F)NC(=O)[C@@H](NC(=O)OC)C(C)(C)C(F)(F)F)OC(=O)CC(C)(C)c1c(CC(=O)N[C@@H](CCC(=O)O)C(=O)O)cc(C)cc1OP(=O)(O)O)C(C)(C)C(F)(F)F
*A* 197.1

*Q* Specify reported [Intermediate A] or [Amprenavir] for the molecule shown: COC(=O)N[C@H](C(=O)N[C@@H](Cc1ccc(C#Cc2cnc(N3CC4CCC(C3)N4C3COC3)nc2)cc1)[C@H](CN(Cc1c(F)cc(-c2ccn(C(F)F)n2)cc1F)NC(=O)[C@@H](NC(=O)OC)C(C)(C)C(F)(F)F)OC(=O)CC(C)(C)c1c(CC(=O)N2C[C@@H](C(=O)O)C[C@H]2C(=O)O)cc(C)cc1OP(=O)(O)O)C(C)(C)C(F)(F)F
*A* 95.5

----------
Listing: [Intermediate A] or [Amprenavir] of selected compounds
target: UniProtKB P19111; test: BiALP: conversion by bovine intestinal alkaline phosphatase; type: in vitro ADME; conditions: parent formed; 2 μM substrate, 100 ng/mL iALP, Tris pH 7.8, 37° C., 60 minutes
# value in nM; strip the unit string

# count of solved cases: 3
smiles-structure	numeric-value
COC(=O)N[C@H](C(=O)N[C@@H](Cc1ccc(C#Cc2cnc(N3CC4CCC(C3)N4C3COC3)nc2)cc1)[C@H](CN(Cc1c(F)cc(-c2ccn(C(F)F)n2)cc1F)NC(=O)[C@@H](NC(=O)OC)C(C)(C)C(F)(F)F)OC(=O)OCOC(=O)CC(C)(C)c1c(CC(=O)NCC(=O)NS(C)(=O)=O)cc(C)cc1OP(=O)(O)O)C(C)(C)C(F)(F)F	1468.7
COC(=O)N[C@H](C(=O)N[C@@H](Cc1ccc(C#Cc2cnc(N3CC4CCC(C3)N4C3COC3)nc2)cc1)[C@H](CN(Cc1c(F)cc(-c2ccn(C(F)F)n2)cc1F)NC(=O)[C@@H](NC(=O)OC)C(C)(C)C(F)(F)F)OC(=O)CC(C)(C)c1c(CC(=O)N2CCN(S(C)(=O)=O)CC2)cc(C)cc1OP(=O)(O)O)C(C)(C)C(F)(F)F	0
COC(=O)N[C@H](C(=O)N[C@@H](Cc1ccc(C#Cc2cnc(N3CC4CCC(C3)N4C3COC3)nc2)cc1)[C@H](CN(Cc1c(F)cc(-c2ccn(C(F)F)n2)cc1F)NC(=O)[C@@H](NC(=O)OC)C(C)(C)C(F)(F)F)OC(=O)CC(C)(C)c1c(CC(=O)NCc2ccc(C(F)F)cc2)cc(C)cc1OP(=O)(O)O)C(C)(C)C(F)(F)F	0.3

*Q* Given COC(=O)N[C@H](C(=O)N[C@@H](Cc1ccc(C#Cc2cnc(N3CC4CCC(C3)N4C3COC3)nc2)cc1)[C@H](CN(Cc1c(F)cc(-c2ccn(C(F)F)n2)cc1F)NC(=O)[C@@H](NC(=O)OC)C(C)(C)C(F)(F)F)OC(=O)OCOC(=O)CC(C)(C)c1c(CC(=O)O)cc(C)cc1OP(=O)(O)O)C(C)(C)C(F)(F)F , respond with its [Intermediate A] or [Amprenavir].
*A* 1276.2

*Q* // fetch [Intermediate A] or [Amprenavir] given entry COC(=O)N[C@H](C(=O)N[C@@H](Cc1ccc(C#Cc2cnc(N3CC4CCC(C3)N4C3COC3)nc2)cc1)[C@H](CN(Cc1c(F)cc(-c2ccn(C(F)F)n2)cc1F)NC(=O)[C@@H](NC(=O)OC)C(C)(C)C(F)(F)F)OC(=O)CC(C)(C)c1c(CC(=O)N2CC[C@@H]2C(=O)O)cc(C)cc1OP(=O)(O)O)C(C)(C)C(F)(F)F
*A* 36.5

*Q* Specify reported [Intermediate A] or [Amprenavir] for the compound shown: COC(=O)N[C@H](C(=O)N[C@@H](Cc1ccc(C#Cc2cnc(N3CC4CCC(C3)N4C3COC3)nc2)cc1)[C@H](CN(Cc1c(F)cc(-c2ccn(C(F)F)n2)cc1F)NC(=O)[C@@H](NC(=O)OC)C(C)(C)C(F)(F)F)OC(=O)CC(C)(C)c1c(CC(=O)Nc2cc(C(=O)O)cc(C(=O)O)c2)cccc1OP(=O)(O)O)C(C)(C)C(F)(F)F
*A* 317.9
